study target: MMP9 (Homo sapiens)
Sequence (P14780 107-707 limits assumed): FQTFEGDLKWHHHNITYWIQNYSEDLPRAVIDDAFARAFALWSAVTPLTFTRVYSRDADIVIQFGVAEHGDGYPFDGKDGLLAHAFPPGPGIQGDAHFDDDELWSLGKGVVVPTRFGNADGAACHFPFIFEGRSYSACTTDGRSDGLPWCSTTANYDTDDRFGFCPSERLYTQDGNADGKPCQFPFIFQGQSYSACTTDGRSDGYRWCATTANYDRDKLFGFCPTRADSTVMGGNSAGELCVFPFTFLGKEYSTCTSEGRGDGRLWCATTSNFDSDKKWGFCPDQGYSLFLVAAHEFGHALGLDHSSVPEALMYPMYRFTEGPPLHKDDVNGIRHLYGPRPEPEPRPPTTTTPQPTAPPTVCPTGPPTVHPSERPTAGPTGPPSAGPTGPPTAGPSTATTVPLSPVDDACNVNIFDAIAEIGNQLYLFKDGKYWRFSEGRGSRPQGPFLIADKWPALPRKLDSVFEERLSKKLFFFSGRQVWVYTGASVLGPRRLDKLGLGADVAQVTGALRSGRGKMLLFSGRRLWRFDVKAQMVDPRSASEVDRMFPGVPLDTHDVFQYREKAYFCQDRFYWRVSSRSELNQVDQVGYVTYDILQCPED
assay text: off-target proteinase inhibition MMP9
Format: biochemical
condition label: read-out: Relative enzyme activity MMP9
Below: a set of entries, each annotated with reported remaining activity at 200 µM.
State the answer as a number, implicitly in %.

Some solved entries appear below for comparison.
>>> reading("O=C(Cc1c(-c2ccccc2)noc1-c1ccccc1)NO")
16
>>> reading("O=C(CCc1c(-c2ccccc2)noc1-c1ccccc1)NO")
39
>>> reading("O=C(Cn1c(-c2ccccc2)nc2ccccc21)NO")
68

Consider the additional compound presented here.
Req: GET /values?readout=remaining activity at 200 µM&item= `O=C(Cn1c(-c2ccccc2)cc2ccccc21)NO`
Resp: 53

* * *

study target: UniProtKB P78536
Sequence (P78536 215-824): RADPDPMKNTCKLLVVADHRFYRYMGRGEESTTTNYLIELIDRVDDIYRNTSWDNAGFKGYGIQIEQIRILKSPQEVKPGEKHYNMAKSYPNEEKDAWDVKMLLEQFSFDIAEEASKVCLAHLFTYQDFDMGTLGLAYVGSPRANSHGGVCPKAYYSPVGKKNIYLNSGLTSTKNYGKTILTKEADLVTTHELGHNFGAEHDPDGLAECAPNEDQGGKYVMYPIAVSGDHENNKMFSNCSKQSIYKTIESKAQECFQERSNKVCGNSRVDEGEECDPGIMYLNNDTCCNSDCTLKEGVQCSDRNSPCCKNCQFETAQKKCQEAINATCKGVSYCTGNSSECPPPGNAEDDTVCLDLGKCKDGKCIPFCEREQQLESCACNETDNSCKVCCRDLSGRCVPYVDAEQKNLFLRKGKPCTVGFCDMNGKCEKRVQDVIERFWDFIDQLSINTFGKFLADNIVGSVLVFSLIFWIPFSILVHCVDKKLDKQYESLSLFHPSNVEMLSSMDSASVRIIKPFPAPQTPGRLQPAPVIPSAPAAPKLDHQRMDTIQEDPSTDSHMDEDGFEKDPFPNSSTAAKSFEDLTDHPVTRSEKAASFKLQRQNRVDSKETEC
assay text: off-target proteinase inhibition ADAM17
Format: biochemical
condition label: read-out: Relative enzyme activity ADAM17
Below: a set of entries, each annotated with reported remaining activity at 10 µM.
State the result as a value with its unit after it.

Some solved entries appear below for comparison.
>>> reading("O=C(Cn1c(-c2ccccc2)cc2ccccc21)NO [4 a]")
"88%"
>>> reading("O=C(Cn1c(-c2ccccc2)ccc1-c1ccccc1)NO [2 a]")
"82%"
>>> reading("O=C(CCc1c(-c2ccccc2)n[nH]c1-c1ccccc1)NO [2 f]")
"76%"
>>> reading("O=C(Cn1c(-c2ccccc2)nc2ccccc21)NO [4 c]")
"92%"
>>> reading("O=C(CCc1c(-c2ccccc2)noc1-c1ccccc1)NO [2 d]")
"75%"

Req: GET /values?readout=remaining activity at 10 µM&item= O=C(Cc1c(-c2ccccc2)noc1-c1ccccc1)NO [2 c]
Resp: 62%

Req: GET /values?readout=remaining activity at 10 µM&item= O=C(Cn1c(-c2ccccc2)nnc1-c1ccccc1)NO [2 g]
Resp: 90%

Req: GET /values?readout=remaining activity at 10 µM&item= O=C(Cc1c(-c2ccccc2)n[nH]c1-c1ccccc1)NO [2 e]
Resp: 61%

* * *

study target: ADAM10 (Homo sapiens, UniProt O14672)
Sequence (O14672 214-748): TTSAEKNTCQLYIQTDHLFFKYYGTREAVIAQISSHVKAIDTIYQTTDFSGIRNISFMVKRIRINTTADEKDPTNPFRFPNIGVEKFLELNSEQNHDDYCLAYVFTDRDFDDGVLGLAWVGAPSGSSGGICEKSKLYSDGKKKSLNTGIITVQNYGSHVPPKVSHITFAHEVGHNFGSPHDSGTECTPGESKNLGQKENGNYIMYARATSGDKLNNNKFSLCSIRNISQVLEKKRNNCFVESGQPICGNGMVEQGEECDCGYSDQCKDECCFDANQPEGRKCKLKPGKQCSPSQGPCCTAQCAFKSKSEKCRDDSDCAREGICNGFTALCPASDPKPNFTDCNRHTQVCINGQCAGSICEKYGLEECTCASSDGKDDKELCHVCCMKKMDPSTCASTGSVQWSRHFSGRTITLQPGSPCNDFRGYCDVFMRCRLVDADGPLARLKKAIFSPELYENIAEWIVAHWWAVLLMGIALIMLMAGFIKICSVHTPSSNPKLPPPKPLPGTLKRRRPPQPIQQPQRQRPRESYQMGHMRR
assay text: off-target proteinase inhibition ADAM10
Format: biochemical
condition label: read-out: Relative enzyme activity ADAM10
// returns F unless remaining activity at 200 µM is strictly below 70%, in which case T

>>> class_name("O=C(Cc1c(-c2ccccc2)noc1-c1ccccc1)NO [2 c]")
"T"
>>> class_name("O=C(Cc1c(-c2ccccc2)n[nH]c1-c1ccccc1)NO [2 e]")
"T"

Req: Dear reviewer, please state whether O=C(CCc1c(-c2ccccc2)noc1-c1ccccc1)NO [2 d] has remaining activity at 200 µM strictly beneath 70%.
Resp: T

Req: Dear reviewer, please state whether O=C(CCc1c(-c2ccccc2)n[nH]c1-c1ccccc1)NO [2 f] has remaining activity at 200 µM strictly beneath 70%.
Resp: T

Req: Dear reviewer, please state whether O=C(Cn1c(-c2ccccc2)nc2ccccc21)NO [4 c] has remaining activity at 200 µM strictly beneath 70%.
Resp: F

Req: Dear reviewer, please state whether O=C(Cn1c(-c2ccccc2)ccc1-c1ccccc1)NO [2 a] has remaining activity at 200 µM strictly beneath 70%.
Resp: T

Req: Dear reviewer, please state whether O=C(Cn1c(-c2ccccc2)nnc1-c1ccccc1)NO [2 g] has remaining activity at 200 µM strictly beneath 70%.
Resp: F

* * *

study target: recombinant human meprin α (Homo sapiens, UniProt Q16819)
Sequence (Q16819 66-746): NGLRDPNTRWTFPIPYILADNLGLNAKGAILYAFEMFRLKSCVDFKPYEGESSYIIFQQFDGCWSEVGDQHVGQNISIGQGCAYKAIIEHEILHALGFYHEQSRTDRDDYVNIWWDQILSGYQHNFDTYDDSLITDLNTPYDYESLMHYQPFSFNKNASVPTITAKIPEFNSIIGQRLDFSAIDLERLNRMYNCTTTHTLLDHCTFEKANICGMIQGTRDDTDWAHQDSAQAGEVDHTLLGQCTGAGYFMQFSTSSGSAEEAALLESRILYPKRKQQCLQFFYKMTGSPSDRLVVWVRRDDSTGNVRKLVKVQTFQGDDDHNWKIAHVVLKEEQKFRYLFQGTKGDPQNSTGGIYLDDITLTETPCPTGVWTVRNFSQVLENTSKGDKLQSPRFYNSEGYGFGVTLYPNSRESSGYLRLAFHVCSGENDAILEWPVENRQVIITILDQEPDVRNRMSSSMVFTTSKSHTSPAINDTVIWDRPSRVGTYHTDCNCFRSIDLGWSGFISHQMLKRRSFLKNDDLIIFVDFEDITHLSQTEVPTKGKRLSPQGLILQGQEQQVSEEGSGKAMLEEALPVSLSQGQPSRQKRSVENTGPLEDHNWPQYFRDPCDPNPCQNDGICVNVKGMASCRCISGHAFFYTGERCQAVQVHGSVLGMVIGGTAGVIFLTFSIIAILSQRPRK
assay text: meprin α inhibition, quenched fluorogenic peptide substrate assay
Type: biochemical
condition label: meprin α over meprin β
The label depends only on SF: selectivity factor (K i app meprin β/K i app meprin α): 1 (yes) if it is at least 40, 0 (no) if it is smaller.

Solved cases below.
>>> class_name("O=C(Cn1c(-c2ccccc2)nc2ccccc21)NO")
"0 (no)"
>>> class_name("O=C(Cc1c(-c2ccccc2)nnn1-c1ccccc1)NO")
"1 (yes)"

Req: Can `O=C(Cn1c(-c2ccccc2)ccc1-c1ccccc1)NO` be said to have SF: selectivity factor (K i app meprin β/K i app meprin α) at or above 40?
Resp: 1 (yes)

Req: Can `O=C(Cn1c(-c2ccccc2)nc2ncccc21)NO` be said to have SF: selectivity factor (K i app meprin β/K i app meprin α) at or above 40?
Resp: 0 (no)

Req: Can `O=C(Cc1c2ccccc2nn1-c1ccccc1)NO` be said to have SF: selectivity factor (K i app meprin β/K i app meprin α) at or above 40?
Resp: 0 (no)

Req: Can `O=C(CCc1c(-c2ccccc2)n[nH]c1-c1ccccc1)NO` be said to have SF: selectivity factor (K i app meprin β/K i app meprin α) at or above 40?
Resp: 1 (yes)

Req: Can `O=C(Cc1c(-c2ccccc2)[nH]c2ccccc12)NO` be said to have SF: selectivity factor (K i app meprin β/K i app meprin α) at or above 40?
Resp: 0 (no)

Req: Can `O=C(CCn1nc(-c2ccccc2)cc1-c1ccccc1)NO` be said to have SF: selectivity factor (K i app meprin β/K i app meprin α) at or above 40?
Resp: 0 (no)

* * *

study target: mouse ovastacin (Mus musculus)
Sequence (Q6HA09 86-435 limits assumed): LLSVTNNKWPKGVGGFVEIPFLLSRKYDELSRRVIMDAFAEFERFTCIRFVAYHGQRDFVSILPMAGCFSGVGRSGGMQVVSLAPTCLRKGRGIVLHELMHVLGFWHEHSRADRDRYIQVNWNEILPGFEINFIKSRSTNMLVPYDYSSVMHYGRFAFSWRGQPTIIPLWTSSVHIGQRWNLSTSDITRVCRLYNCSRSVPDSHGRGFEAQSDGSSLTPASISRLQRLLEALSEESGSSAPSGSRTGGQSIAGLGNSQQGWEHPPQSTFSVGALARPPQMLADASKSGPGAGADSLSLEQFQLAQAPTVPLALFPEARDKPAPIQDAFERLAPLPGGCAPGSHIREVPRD
assay text: ovastacin inhibition, fluorogenic enzyme activity assay
observation type: SF Meprin β: selectivity factor (K i app ovastacin/K i app meprin β)
Number only, no unit.

>>> reading("O=C(Cn1nc(-c2ccccc2)cc1-c1ccccc1)NO [3 a]")
0.1
>>> reading("O=C(CCn1c(-c2ccccc2)nc2ccccc21)NO [4 d]")
0.4

Req: Query the reported SF Meprin β: selectivity factor (K i app ovastacin/K i app meprin β) for mouse ovastacin (Mus musculus); item: O=C(CCn1c(-c2ccccc2)nnc1-c1ccccc1)NO [2 h]
Resp: 0.8

Req: Query the reported SF Meprin β: selectivity factor (K i app ovastacin/K i app meprin β) for mouse ovastacin (Mus musculus); item: O=C(Cn1c(-c2ccccc2)cc2ccccc21)NO [4 a]
Resp: 0.1

Req: Query the reported SF Meprin β: selectivity factor (K i app ovastacin/K i app meprin β) for mouse ovastacin (Mus musculus); item: O=C(Cc1c(-c2ccccc2)n[nH]c1-c1ccccc1)NO [2 e]
Resp: 1

Req: Query the reported SF Meprin β: selectivity factor (K i app ovastacin/K i app meprin β) for mouse ovastacin (Mus musculus); item: O=C(Cn1c(-c2ccccc2)nc2ccccc21)NO [4 c]
Resp: 1.3

Req: Query the reported SF Meprin β: selectivity factor (K i app ovastacin/K i app meprin β) for mouse ovastacin (Mus musculus); item: O=C(Cn1c(-c2ccccc2)nnc1-c1ccccc1)NO [2 g]
Resp: 0.6

Req: Query the reported SF Meprin β: selectivity factor (K i app ovastacin/K i app meprin β) for mouse ovastacin (Mus musculus); item: O=C(CCn1c(-c2ccccc2)cc2ccccc21)NO [4 b]
Resp: 0.1

Req: Query the reported SF Meprin β: selectivity factor (K i app ovastacin/K i app meprin β) for mouse ovastacin (Mus musculus); item: O=C(Cc1c(-c2ccccc2)noc1-c1ccccc1)NO [2 c]
Resp: 0.1

Req: Query the reported SF Meprin β: selectivity factor (K i app ovastacin/K i app meprin β) for mouse ovastacin (Mus musculus); item: O=C(CCc1c(-c2ccccc2)n[nH]c1-c1ccccc1)NO [2 f]
Resp: 0.3

Req: Query the reported SF Meprin β: selectivity factor (K i app ovastacin/K i app meprin β) for mouse ovastacin (Mus musculus); item: O=C(CCn1nc(-c2ccccc2)cc1-c1ccccc1)NO [3 b]
Resp: 0.1

* * *

Below: a set of entries, each annotated with reported remaining activity at 10 µM.
study target: ADAM10 (Homo sapiens, UniProt O14672)
assay text: off-target proteinase inhibition ADAM10
Format: biochemical
condition label: read-out: Relative enzyme activity ADAM10
State the answer as a number, implicitly in %.

Some solved entries appear below for comparison.
>>> reading("O=C(CCc1c(-c2ccccc2)n[nH]c1-c1ccccc1)NO")
66
>>> reading("O=C(Cn1c(-c2ccccc2)cc2ccccc21)NO")
89
>>> reading("O=C(Cn1c(-c2ccccc2)nnc1-c1ccccc1)NO")
89
>>> reading("O=C(CCc1c(-c2ccccc2)noc1-c1ccccc1)NO")
75
>>> reading("O=C(Cn1c(-c2ccccc2)ccc1-c1ccccc1)NO")
82

Req: GET /values?readout=remaining activity at 10 µM&item= `O=C(Cc1c(-c2ccccc2)n[nH]c1-c1ccccc1)NO`
Resp: 73

Req: GET /values?readout=remaining activity at 10 µM&item= `O=C(Cc1c(-c2ccccc2)noc1-c1ccccc1)NO`
Resp: 80

Req: GET /values?readout=remaining activity at 10 µM&item= `O=C(Cn1c(-c2ccccc2)nc2ccccc21)NO`
Resp: 87
